tested on: SK-MEL-2 melanoma; assay: NCI-60 one-dose screen, 48 h (100 = growth as untreated, 0 = no growth, -100 = all killed); details: 10 µM unless noted
This is part of a sample that, as a whole, favours compounds with a hit. Of some 83,000 tested, about 20% had one in any assay. Active and inactive are the calls of the source. The calls were made as follows: active = growth percent below 10; inactive = the rest.
measured endpoint: growth

Recorded results for 3 compounds are shown here.
1. O=C1Nc2cc(-c3ccc(NC(=O)C4CC4)cc3)ccc2/C1=C/c1ccc[nH]1    109% (inactive)
2. CCCCCN1C=C/C(=C\C(=O)N(C)c2ccc(Oc3ccccc3)cc2)c2ccccc21    98% (inactive)
3. CCOC(=O)CSc1nc2ccccc2c(=O)n1Cc1ccc(S(N)(=O)=O)cc1    111% (inactive)

Note down growth recorded for COc1ccc2c(c1)C(=O)CC(c1ccccc1OC)O2 (stereo not given)
102% (inactive)

Note down growth recorded for NC(=NCc1ccccc1)C(N=Nc1ccccc1)C(=O)NCc1ccccc1 (stereo not given)
107% (inactive)

----------
test system: SNB-75 CNS; assay: NCI-60 one-dose screen, 48 h (100 = growth as untreated, 0 = no growth, -100 = all killed); details: 10 µM unless noted
About 83,000 compounds went through this panel and 20% of them were active in at least one assay; those are over-represented in the sample as a whole.
Label scheme for growth: lower than 90% is FALSE, 90% and above is TRUE.

Reference set, count: 3
1. COc1cccc(-c2cc(C(=O)Nc3ccc(/C=C/c4ccc(OC5CCN(C)CC5)cc4)cc3)ccc2OC)c1    FALSE
2. O=[N+]([O-])c1cc(Br)c2cccc3c2c1CC3    TRUE
3. COc1ccc(/C=C/c2nc(Nc3ccc(Cl)cc3)c3ccccc3n2)cc1    FALSE

Does the reported growth for O=C(CSc1nc2ccccc2[nH]1)NCc1ccccc1 fall at or above the 90% mark?
FALSE

Does the reported growth for CCCCCCCCO/N=C\c1c2c(O)c3c(O)c(C)c4c(c3c1O)C(=O)C(C)(O/C=C\C(OC)C(C)C(OC(C)=O)C(C)C(O)C(C)C(O)C(C)/C=C\C=C(\C)C(=O)N2)O4 (stereo not drawn) fall at or above the 90% mark?
FALSE

Does the reported growth for c1ccc(-c2c(-c3ccccc3)[n+](Cc3ccc4ccccc4c3)c(-c3cccc4ccccc34)n2Cc2ccc3ccccc3c2)cc1 fall at or above the 90% mark?
FALSE

Does the reported growth for COc1cc(F)c(/C=C/c2cc(/C=C/c3cc(OC)c(OC)cc3F)on2)cc1OC fall at or above the 90% mark?
TRUE

Does the reported growth for O=c1[nH]nc(-c2ccccc2)c2sc3ncc(-c4ccc(Br)cc4)n3c12 fall at or above the 90% mark?
FALSE

Does the reported growth for CCOC(=O)CSc1nc2ccccc2c(=O)n1Cc1ccc(S(N)(=O)=O)cc1 fall at or above the 90% mark?
FALSE

Does the reported growth for CCNC(=O)Oc1ccc(/C(=C(\C)c2ccccc2)c2ccc(OCCN3CCCCC3)cc2)cc1 fall at or above the 90% mark?
FALSE

----------
system: MDA-MB-435 melanoma; assay: NCI-60 one-dose screen, 48 h (100 = growth as untreated, 0 = no growth, -100 = all killed); settings: 10 µM unless noted
This is part of a sample that, as a whole, favours compounds with a hit. Of some 83,000 tested, about 20% had one in any assay.
Label scheme for growth: lower than 70% is 0.0, 70% and above is 1.0.

Reference set, count: 3
1) Nc1nc(Nc2ccccc2SSc2ccccc2Nc2nc(N)nc(-c3ccc(C(F)(F)F)cc3)n2)nc(-c2ccc(C(F)(F)F)cc2)n1    1.0
2) CN(C)CC(O)c1ccc(/C=C/c2ccc(Cl)cc2)cc1 (centres undefined)    0.0
3) COc1cccc2c1c1nc3cc(C)c(C)cc3nc1n2CCN(C)C    0.0

Does the reported growth for O=C1NN(C(=O)c2ccccc2)C(c2ccc(Cl)c(Cl)c2)=C/C1=C\c1ccc([N+](=O)[O-])cc1 fall at or above the 70% mark?
1.0

Does the reported growth for COc1ccc(C(=O)/C=C/c2cc3ccccc3n3nnnc23)cc1 fall at or above the 70% mark?
1.0

Does the reported growth for CC(Oc1ccc(C(=O)O)cc1C(F)(F)F)c1ccc(Oc2ccccc2)cn1 (centres undefined) fall at or above the 70% mark?
1.0

----------
tested on: UACC-257 melanoma; test: NCI-60 one-dose screen, 48 h; settings: 10 µM unless noted
The panel holds about 83,000 compounds, 20% with a hit somewhere; the sample as a whole holds those more often. Calls of active or inactive are those of the source. The calls were made as follows: active = growth percent below 10; inactive = the rest.
Use one of these outcomes when replying: 1.0 for active, 0.0 for inactive

Reference set, count: 3
1) Cn1ccnc1C(=O)/C=C/c1ccc(CC(=O)NC2CCCCC2)cc1    0.0
2) COc1ccc(OC)c(-c2cc(-c3ccc(Cl)cc3)c3c(N)c(C(=O)c4ccc(Cl)cc4)sc3n2)c1    0.0
3) COc1cc(/C=N/NC(=O)c2cnn3c2NC(c2ccccc2)C3)ccc1OCc1ccccc1 (centres undefined)    0.0

In this assay, the call recorded for N#Cc1cc(-c2nc3ccccc3s2)c(=O)n(NS(=O)(=O)c2ccccc2)c1N was what?
0.0

In this assay, the call recorded for C=C(C)[C@@H]1CC[C@]2(C(=O)N3CCN(C)CC3)CC[C@]3(C)[C@H](CC[C@@H]4[C@@]5(C)CC[C@H](O)C(C)(C)[C@@H]5CC[C@]43C)[C@@H]12 was what?
1.0

In this assay, the call recorded for O=C(O)c1ccc2c(c1)C(=O)N(Cc1ccccc1)C2=O was what?
0.0

In this assay, the call recorded for COc1cc(/C=C2\COc3ccc(-c4ccccc4)cc3C2=O)cc(OC)c1 was what?
0.0

In this assay, the call recorded for COc1cc2c(=O)n(CCN(C)C)c3c4cc5c(cc4ccc3c2cc1OC)OCO5 was what?
1.0

In this assay, the call recorded for Cc1ccc(-n2nc3c(c(C#N)c2=O)CC(c2ccccc2[N+](=O)[O-])C([N+](=O)[O-])=C3O)cc1 (centres undefined) was what?
0.0

----------
system: SF-539 CNS; assay: NCI-60 one-dose screen, 48 h (100 = growth as untreated, 0 = no growth, -100 = all killed); conditions: 10 µM unless noted
Compounds without any hit were thinned out: in the full panel of roughly 83,000, 20% have a hit. Active and inactive are the calls of the source. The calls were made as follows: active = growth percent below 10; inactive = the rest.
measured endpoint: growth

Recorded results for 4 compounds are shown here.
1. COc1ccc(/C=N/NC(=O)c2cnn3c2NC(c2ccccc2)C3)cc1OC (stereo not given)    63.4% (inactive)
2. N#C/C(=C\c1ccccn1)c1nc2cc(Cl)ccc2s1    63.1% (inactive)
3. COc1cc(-c2csc(NC(=O)c3cc(F)cc(C(F)(F)F)c3)n2)cc(OC)c1OC    26.8% (inactive)
4. CNC(=O)c1cc(Cn2nc(C)c(NC(=O)Nc3ccc(Cl)c(C(F)(F)F)c3)c2C)ccn1    94% (inactive)

Note down growth recorded for Cc1ccc(NS(=O)(=O)c2ccc(-c3cnc(C4CC4)o3)cc2)cc1C(F)(F)F
65.5% (inactive)

Note down growth recorded for Cc1nc(N)nc(N[C@@H](C)c2nc3cccc(NCc4ccc(C(=O)NO)cc4)c3c(=O)n2-c2ccccc2)n1
75.9% (inactive)

Note down growth recorded for O=[N+]([O-])c1ccc(N=Nc2cc(S(=O)(=O)O)c3cccc(S(=O)(=O)O)c3c2O)cc1
104% (inactive)

Note down growth recorded for COc1cc2nc(-c3ccc(Cl)cc3)cc(OCCCN3CCCC3)c2cc1OC
42.6% (inactive)

Note down growth recorded for CCOC(=O)C1=C(CCl)NC(=O)NC1c1ccc2c(c1)OCO2 (stereo not given)
16.5% (inactive)

----------
test system: HCT-15 colon; experiment: NCI-60 one-dose screen, 48 h (100 = growth as untreated, 0 = no growth, -100 = all killed); details: 10 µM unless noted
About 83,000 compounds went through this panel and 20% of them were active in at least one assay; those are over-represented in the sample as a whole.
Class (by growth) -- low group = under 20%, middle group = from 20% up to 90%, high group = 90% and over

Reference set, count: 6
1) O=C(Nc1ccccc1C(=O)N/N=C(\c1ccccc1)c1ccccn1)c1ccc(F)cc1    middle group
2) Cc1c(C(=O)NCCC(=O)NO)sc2ncnc(Nc3ccc(F)c(Cl)c3)c12    high group
3) COc1cc2cc(Oc3cccc(NC(=O)Nc4cc(C(F)(F)F)cc(C(F)(F)F)c4)c3)c(C)nc2cc1OC    low group
4) Fc1ccc(-c2cn3c(nc4ccccc43)c(-c3ccccc3)n2)cc1    high group
5) C[C@H]1[C@H](C)CC[C@]2(C(=O)Nc3ccc4ncccc4c3)CC[C@]3(C)C(=CC[C@@H]4[C@@]5(C)CCCNC(C)(C)[C@@H]5CC[C@]43C)[C@H]12    low group
6) Cc1c2cc[nH]c(=O)c2c(C)c2c1[nH]c1cc(OCCN3CCN(C)CC3)ccc12    low group

Bin this entry: OCc1cnc2ccccc2c1NC1CCCCCC1
high group

Bin this entry: N=C(N)c1ccc(OCCCCCCCCCCOc2ccc(C(=N)N)cc2)cc1
middle group

Bin this entry: CCCOC(=O)N[C@H]1CCc2cc(OC)c(OC)c(OC)c2-c2ccc(SC)c(=O)cc21
low group

Bin this entry: CC1=C(C(=O)/C=C/c2c[nH]c3ccccc23)C(c2ccccc2)NC(=S)N1 (stereo not drawn)
high group

Bin this entry: COc1ccc(C(=O)c2cc(OC)c(OC)c(OC)c2)cc1O
low group

Bin this entry: COc1cc2oc(-c3cccc(C(=O)Nc4ccc(Cl)cc4)c3)cc(=O)c2c(O)c1OC
middle group

Bin this entry: O=C1OC(Cc2ccccc2)C1c1ccccc1 (stereo not drawn)
high group

Bin this entry: O=C(/C(=C\c1ccc([N+](=O)[O-])cc1)S(=O)Cc1ccc(F)cc1)c1ccc(F)cc1 (stereo not drawn)
low group

Bin this entry: N=C1C(c2nc3ccccc3s2)=C(O)CN1c1cc(Cl)cc(Cl)c1
middle group

Bin this entry: C#CCNC(=O)[C@]1(C)CC[C@]2(C)CC[C@@H]3C(=CC[C@H]4[C@@]3(C)CC[C@H]3C(C)(C)C(=O)CC[C@]43C)[C@@H]2C1
high group

Bin this entry: CCN(CC)CCCC(C)Nc1cc(O)cc2cccnc12 (stereo not drawn)
high group

Bin this entry: C=C1C(=O)O[C@H]2[C@H]1CC/C(COC(=O)NCc1c[nH]c3ccc(Cl)cc13)=C\CC[C@@]1(C)O[C@@H]21
low group
